Assay text: DPPH free radical-scavenging assay
Run parameters: 200 µM compound, DPPH 110 µM, 30 min
# note: boundary value 50% maps to 0; DPPH radical scavenging % Inhibition at 200 µM below it maps to 1

- Compound structure string: "O=C(C=Cc1ccc(Cl)cc1)NCc1cn(CC(=O)Nc2ccc(Br)cc2)nn1"
  Assigned class: 0
- Compound structure string: "COc1ccc(C=CC(=O)NCc2cn(CC(=O)Nc3ccc(F)cc3)nn2)cc1"
  Assigned class: 0
- Compound structure string: "O=C(C=Cc1ccccc1)NCc1cn(CC(=O)Nc2ccc(Br)cc2)nn1"
  Assigned class: 1
- Compound structure string: "COc1ccc(C=CC(=O)NCc2cn(CC(=O)Nc3ccccc3)nn2)cc1"
  Assigned class: 1
- Compound structure string: "CCc1ccc(NC(=O)Cn2cc(CNC(=O)C=Cc3ccc(Cl)cc3)nn2)cc1"
  Assigned class: 0

* * *

Assay text: DPPH free radical-scavenging assay
Run parameters: 200 µM compound, DPPH 110 µM, 30 min
# key: entry, value: DPPH radical scavenging % Inhibition at 200 µM
Measured endpoint: DPPH radical scavenging % Inhibition at 200 µM (%)

- Compound structure string: "O=C(C=Cc1ccc(Cl)cc1)NCc1cn(CC(=O)Nc2ccc(F)cc2)nn1"
  Experimental result: 45.73
- Compound structure string: "COc1ccc(C=CC(=O)NCc2cn(CC(=O)Nc3ccc(OC)cc3)nn2)cc1"
  Experimental result: 61.51
- Compound structure string: "O=C(C=Cc1ccccc1)NCc1cn(CC(=O)Nc2ccc(F)cc2)nn1"
  Experimental result: 64.18
- Compound structure string: "O=C(C=Cc1ccccc1)NCc1cn(CC(=O)Nc2ccccc2)nn1"
  Experimental result: 23.64
- Compound structure string: "CCc1ccc(NC(=O)Cn2cc(CNC(=O)C=Cc3ccc(OC)cc3)nn2)cc1"
  Experimental result: 40.73
- Compound structure string: "O=C(C=Cc1ccccc1)NCc1cn(CC(=O)Nc2ccc(Cl)cc2)nn1"
  Experimental result: 36.91
- Compound structure string: "O=C(C=Cc1ccc(Cl)cc1)NCc1cn(CC(=O)Nc2ccc(Cl)cc2)nn1"
  Experimental result: 22.82
